# Test system: Vero E6 infected with SARS-CoV-2
# procedure details: inhibition of SARS-CoV-2 cytopathic effect; higher = more antiviral protection, active = above 15
# test parameters: 100 nM; 48 h
reported metric: inhibition of SARS-CoV-2 cytopathic effect (%)
Kindly answer with a numeric value in %, unit omitted.

[Q] What measured inhibition of SARS-CoV-2 cytopathic effect goes with O=C1NC(=O)C(=Cc2ccc(-c3ccc(F)cc3)o2)S1 (stereo in doubt) ?
[A] -0.68

[Q] Same read-out for N#Cc1c[nH]c2c(C(=O)N3CCN(CCc4ccc(F)cc4)CC3)cccc12 [pruvanserin] ?
[A] 2.62

[Q] Same read-out for CCn1cc(C(=O)O)c(=O)c2cc(F)c(N3CCNCC3)nc21 [enoxacin] ?
[A] 0.25

[Q] Same read-out for CC(C)(CO)CCCCCCC(C)(C)CO [gemcadiol] ?
[A] -1.65

[Q] Same read-out for CCN(CC)Cc1ccc2cc(COC(=O)Nc3ccc(C(=O)NO)cc3)ccc2c1 [givinostat] ?
[A] -5.68

---

For each of the compounds below, state its inhibition of SARS-CoV-2 cytopathic effect.
# Test system: Vero E6 infected with SARS-CoV-2
# procedure details: inhibition of SARS-CoV-2 cytopathic effect; higher = more antiviral protection, active = above 15
# test parameters: 1 nM; 48 h
Kindly answer with a numeric value in %, unit omitted.

[Q] What measured inhibition of SARS-CoV-2 cytopathic effect goes with `Cc1n[nH]c2ccc(-c3cncc(OC[C@@H](N)Cc4ccccc4)c3)cc12` ?
[A] 1.18

[Q] Same read-out for `CCN(CC)c1ccc(/C=N/NC(=O)c2ccc(O)cc2)cc1` ?
[A] -0.79

[Q] Same read-out for `Cn1c(Nc2ccc(C(F)(F)F)cc2)nc2cc(Oc3ccnc(-c4ncc(C(F)(F)F)[nH]4)c3)ccc21` ?
[A] 0.79

[Q] Same read-out for `Cc1ccc(C(=O)Nc2ccc(CN3CCN(C)CC3)c(C(F)(F)F)c2)cc1C#Cc1cnc2[nH]ncc2c1` ?
[A] 1.62

[Q] Same read-out for `Cc1ccc([N+](=O)[O-])cc1S(=O)(=O)N(C)/N=C/c1cnc2ccc(Br)cn12` ?
[A] 0.29

[Q] Same read-out for `CC(C)C1=C2[C@H]3CC[C@@H]4[C@@]5(C)CC[C@H](OC(=O)CC(C)(C)C(=O)O)C(C)(C)[C@@H]5CC[C@@]4(C)[C@]3(C)CC[C@@]2([C@@H](O)CN(CCN(C)C)Cc2ccc(Cl)cc2)CC1=O` ?
[A] -0.51

[Q] Same read-out for `COc1cccc2c1C(=O)c1c(O)c3c(c(O)c1C2=O)C[C@@](O)(C(=O)CO)C[C@@H]3O[C@H]1C[C@H](N2CCO[C@H](OC)C2)[C@H](O)[C@H](C)O1` ?
[A] 1.94

[Q] Same read-out for `COc1ccccc1N1CCN(CCCCNC(=O)c2ccc3ccccc3c2)CC1` ?
[A] -1.05

[Q] Same read-out for `Cc1ccc(S(=O)(=O)OCC(=O)Nc2ccc(C(=O)O)c(O)c2)cc1` ?
[A] -0.14

[Q] Same read-out for `CC(C)(C)C(=O)NCCCC(=O)O` ?
[A] 0.01

[Q] Same read-out for `CCN(c1cc(-c2ccc(CN3CCOCC3)cc2)cc(C(=O)NCc2c(C)cc(C)[nH]c2=O)c1C)C1CCOCC1` ?
[A] 2.86

[Q] Same read-out for `Cc1[nH]c2ccc(F)cc2c1-c1nc2c3cccnc3c3ncccc3c2[nH]1` ?
[A] 0.2

---

# System: Vero E6 infected with SARS-CoV-2
# procedure details: inhibition of SARS-CoV-2 cytopathic effect; higher = more antiviral protection, active = above 15
# test parameters: 10000 nM; 48 h
For each of the molecules below, state its inhibition of SARS-CoV-2 cytopathic effect.
Kindly answer with a numeric value in %, unit omitted.

[Q] What measured inhibition of SARS-CoV-2 cytopathic effect goes with `O=c1cc[nH]c(=O)[nH]1` ?
[A] -2.12

[Q] Same read-out for `C=CC(=O)Nc1cccc(C)c1Nc1ncc2cc(-c3c(Cl)c(OC)cc(OC)c3Cl)ccc2n1` ?
[A] 3.67

[Q] Same read-out for `NCCCC[C@H](N[C@@H](CCc1ccccc1)C(=O)O)C(=O)N1CCC[C@H]1C(=O)O` ?
[A] 1.56

[Q] Same read-out for `c1ccc(C(O[C@@H]2CCCN(CCc3ccc4c(c3)OCO4)C2)c2ccccc2)cc1` ?
[A] -1.64

[Q] Same read-out for OC(c1cc(C(F)(F)F)nc2c(C(F)(F)F)cccc12)C1CCCCN1 (stereo unspecified) ?
[A] 73.3

[Q] Same read-out for `Nc1ncnc2c1ncn2[C@@H]1O[C@H](COP(=O)(O)OP(=O)(O)OP(=O)(O)O)[C@@H](O)[C@H]1O` ?
[A] 2.48

[Q] Same read-out for `CCCc1nc(C(C)(C)O)c(C(=O)OCc2oc(=O)oc2C)n1Cc1ccc(-c2ccccc2-c2nnn[nH]2)cc1` ?
[A] 0.55

[Q] Same read-out for `CCN1C(C)(C)CC(Oc2ccc(C(=O)Nc3ccc(NC(=O)Nc4cc(C(C)(C)C)on4)cc3)nc2)CC1(C)C` ?
[A] -4.86

[Q] Same read-out for `CCOC(=O)c1ccccc1OC(=O)CCCCCCCC(=O)Oc1ccccc1C(=O)OCC` ?
[A] -6.2

[Q] Same read-out for S=C=Nc1ccc(N=C=S)cc1 [bitoscanate] ?
[A] -2.58

[Q] Same read-out for C[C@@H](C(=O)O)c1ccc(-c2ccccc2)c(F)c1 (racemic) [flurbiprofen-(+/-)] ?
[A] -0.637

[Q] Same read-out for Brc1ccc(NC2C3CC4CC(C3)CC2C4)cc1 (stereo unspecified) ?
[A] 1.67

[Q] Same read-out for `Cc1coc2c1C(=O)C(=O)c1c-2ccc2c(C)cccc12` ?
[A] -1.34

[Q] Same read-out for `O=C(O)CCCO` ?
[A] 1.79

[Q] Same read-out for `CCOC(=O)C1=CCCC[C@H]1S(=O)(=O)Nc1ccc(F)cc1Cl` ?
[A] -0.49

[Q] Same read-out for `CCCOCCn1c(=O)c(N2CCN(CCO)CC2)nc2cnc(-c3ccc(OC)nc3)cc21` ?
[A] -1.9

[Q] Same read-out for `O=C(NCCO)c1cccc(-c2cc(Nc3ccc(OC(F)(F)F)cc3)ncn2)c1` ?
[A] 0.55

[Q] Same read-out for COc1cc(/C=C/C(=O)N2CCN(CC(=O)N3CCCC3)CC2)cc(OC)c1OC [cinepazide] ?
[A] 0.17

[Q] Same read-out for `Cc1cnc(C(=O)O)c[n+]1[O-]` ?
[A] -1.06

[Q] Same read-out for `CN(C[C@@H]1COCCO1)S(=O)(=O)Nc1ccc2ccc3ncc(-c4cnn(C)c4)cc3c(=O)c2c1` ?
[A] -4.16

[Q] Same read-out for `Cc1cccc(-c2[nH]c(C(C)(C)C)nc2-c2ccc3c(c2)OCO3)n1` ?
[A] -2.91

[Q] Same read-out for `NC(=S)N/N=C/c1ncccc1N` ?
[A] -6.06

[Q] Same read-out for `COc1ccccc1N1CCN(CCCCNC(=O)c2ccc(-c3ccc(C(C)=O)cc3)cc2)CC1` ?
[A] -6.57

[Q] Same read-out for `COc1ccc(-c2ccc3ncc4c(c3c2)n(-c2ccc(N3CCNCC3)c(C(F)(F)F)c2)c(=O)n4C)cn1` ?
[A] -23.9

[Q] Same read-out for CC(C)(O)CC(=O)O [beta-hydroxy-beta-methylbutyrate] ?
[A] -3.42

[Q] Same read-out for `C[C@H](Nc1cc(NS(=O)(=O)N2CCC2)nc(SCc2cccc(F)c2F)n1)[C@@H](O)CO` ?
[A] 2.14

[Q] Same read-out for `O=C(O)Cn1c(C(=O)Nc2nc(-c3ccccc3Cl)cs2)cc2ccccc21` ?
[A] -0.66

[Q] Same read-out for NCC(=O)N1C[C@H](NC(=O)c2ccccc2)C[C@H]1C(=O)O [danegaptide] ?
[A] 3.55

[Q] Same read-out for `O=[N+]([O-])c1cnc(Sc2nnc(O)n2-c2ccc3c(c2)OCCO3)s1` ?
[A] -17.7

[Q] Same read-out for `N#Cc1ccc(NCCNCC(=O)N2CCC[C@H]2C#N)nc1` ?
[A] 2.5

[Q] Same read-out for `O=[N+]([O-])c1ncc[nH]1` ?
[A] -0.1

---

# System: Vero E6 infected with SARS-CoV-2
# procedure details: SARS-CoV-2 infection rate relative to infected DMSO; higher = more infection, active = 60 or less
# test parameters: 24 h
Choose the fitting class; nothing outside active, inactive is accepted.

[Q] Recorded test call requested for Brc1c(Br)c(Br)c2[nH]nnc2c1Br [4,5,6,7-tetrabromobenzotriazole] (10 µM)
[A] inactive

[Q] Same read-out for Nc1nc(=O)c2nc(CNc3ccc(C(=O)N[C@@H](CCC(=O)O)C(=O)O)cc3)cnc2[nH]1 [folic-acid] (10 µM) ?
[A] inactive

[Q] Same read-out for COc1ccc(CCc2nc3cc(-c4c(C)noc4C)ccc3n2C[C@H](C)N2CCOCC2)cc1Cl (0.833333 µM) ?
[A] inactive

[Q] Same read-out for COC(=O)N[C@H](C(=O)N1CCC[C@H]1c1ncc(-c2ccc(-c3ccc(-c4cnc([C@@H]5CCCN5C(=O)[C@@H](NC(=O)OC)C(C)C)[nH]4)cc3)cc2)[nH]1)C(C)C [daclatasvir] (10 µM) ?
[A] inactive

[Q] Same read-out for N[C@@H](C(=O)N[C@@H]1C(=O)N2C(C(=O)O)=C(Cl)CS[C@H]12)c1ccccc1 [cefaclor] (10 µM) ?
[A] inactive

[Q] Same read-out for Cc1cccc(/C=N/Nc2cc(N3CCOCC3)nc(OCCc3ccccn3)n2)c1 (10 µM) ?
[A] active

[Q] Same read-out for OC(CCN1CCCCC1)(c1ccccc1)C1CCCCC1 (configuration not stated) [trihexyphenidyl] (10 µM) ?
[A] inactive
